# Procedure Text: Cytotoxicity against human HFF by MTT assay
# Assay type: cell-based
# Measurement Setup: HFF cells
Quantity Measured: CC50 (µM)
Please state the figure in µM; there is no need to write the unit.

Reference set, count: 2
Entry `CC(C)(C)n1cc(C(=O)O)c(=O)c2cc(N)c(N3CCN(c4nc5ccccc5s4)CC3)cc21` — recorded CC50 = 5.8

Record `CCOC(=O)c1cn(C2CC2)c2cc(N3CCN(c4ccccn4)CC3)c(N)cc2c1=O` . Reported CC50: 409

Others:
Recorded CC50 (compound `O=C(O)c1cn(C2CC2)c2cc(N3CCN(c4ccccn4)CC3)ccc2c1=O` ): 390
